Recorded IC50 values for a group of compounds are listed next.
experimentalSystem: SIK2 (Homo sapiens)
Construct: purchased ThermoFisher Scientific PV4792
protocolDescription: biochemical
setupConditions: ADP-Glo SIK kinase assay

{"chemicalStructure": "COc1cc(-c2cnc3cc(-c4cc(C)no4)ccn23)cc(OC(F)F)c1C(=O)NC1CC1", "experimentalSystem": "SIK2 (Homo sapiens)", "IC50": "0.01 to 10 nM"}
{"chemicalStructure": "CCN1Cc2cc(-n3cnc4cc(-c5cnn(C)c5)ccc43)cc(F)c2C1=O", "experimentalSystem": "SIK2 (Homo sapiens)", "IC50": "100 to 500 nM"}
{"chemicalStructure": "CCN1Cc2cc(-c3cnc4cc(-c5cnn(C)c5)ccn34)cc(OC)c2C1=O", "experimentalSystem": "SIK2 (Homo sapiens)", "IC50": "0.01 to 10 nM"}
{"chemicalStructure": "COc1cc(-c2cnc3cc(-c4cnn(C)c4)ccn23)cc2c1C(=O)N(C1CC1)CC2", "experimentalSystem": "SIK2 (Homo sapiens)", "IC50": "0.01 to 10 nM"}
{"chemicalStructure": "COc1cc(-c2cnc3cc(-c4cnccc4C#N)ccn23)cc(OC)c1C(=O)NCC(F)(F)F", "experimentalSystem": "SIK2 (Homo sapiens)", "IC50": "> 500 nM"}
{"chemicalStructure": "COc1cc(-n2cnc3cc(-c4cnn(C)c4)ccc32)cc(OC)c1C(=O)N1CC(F)(F)C1", "experimentalSystem": "SIK2 (Homo sapiens)", "IC50": "10 to 100 nM"}
{"chemicalStructure": "COc1cc(-c2cnc3cc(-c4cn(C)cn4)ccn23)cc(OC)c1C(=O)N[C@H](C)C(F)(F)F", "experimentalSystem": "SIK2 (Homo sapiens)", "IC50": "0.01 to 10 nM"}
{"chemicalStructure": "COc1cc(-c2cnc3cc(-c4ccc(C)nn4)ccn23)cc(OC(F)F)c1C(=O)NC1CC1", "experimentalSystem": "SIK2 (Homo sapiens)", "IC50": "0.01 to 10 nM"}

###

experimentalSystem: SIK2 (Homo sapiens)
Construct: purchased ThermoFisher Scientific PV4792
protocolDescription: biochemical
setupConditions: 33P radioactive SIK kinase assay, AMARA peptide, 10 μM ATP
pIC50: −log10 of the molar value.

{"compound": "CCn1cc(-c2ccc3c(c2)ncn3-c2cc(OC)c(C(=O)N(C)CC(C)C)c(OC)c2)cn1 [compound 28]", "experimentalSystem": "SIK2 (Homo sapiens)", "pIC50": "< 6.30"}
{"compound": "COc1cc(-n2cnc3cc(-c4cnn(C)c4)ccc32)cc(OC)c1C(=O)N[C@@H]1C[C@H]1CO [compound 156]", "experimentalSystem": "SIK2 (Homo sapiens)", "pIC50": "7.00 to 8.00"}
{"compound": "COc1cc(-c2cnc3cc(-c4cnn(C)c4)ccn23)cc(OC)c1C(=O)N[C@H]1CC[C@@H]1O [compound 170]", "experimentalSystem": "SIK2 (Homo sapiens)", "pIC50": "8.00 to 11.00"}
{"compound": "COc1cc(-n2cnc3cc(-c4cnn(C)c4)ccc32)cc(OC)c1C(=O)NC1CC1 [Cpd 86]", "experimentalSystem": "SIK2 (Homo sapiens)", "pIC50": "8.00 to 11.00"}

###

experimentalSystem: SIK3 (Homo sapiens, UniProt Q9Y2K2)
Construct: purchased SignalChem S12-11G-100
Sequence (Q9Y2K2 whole entry): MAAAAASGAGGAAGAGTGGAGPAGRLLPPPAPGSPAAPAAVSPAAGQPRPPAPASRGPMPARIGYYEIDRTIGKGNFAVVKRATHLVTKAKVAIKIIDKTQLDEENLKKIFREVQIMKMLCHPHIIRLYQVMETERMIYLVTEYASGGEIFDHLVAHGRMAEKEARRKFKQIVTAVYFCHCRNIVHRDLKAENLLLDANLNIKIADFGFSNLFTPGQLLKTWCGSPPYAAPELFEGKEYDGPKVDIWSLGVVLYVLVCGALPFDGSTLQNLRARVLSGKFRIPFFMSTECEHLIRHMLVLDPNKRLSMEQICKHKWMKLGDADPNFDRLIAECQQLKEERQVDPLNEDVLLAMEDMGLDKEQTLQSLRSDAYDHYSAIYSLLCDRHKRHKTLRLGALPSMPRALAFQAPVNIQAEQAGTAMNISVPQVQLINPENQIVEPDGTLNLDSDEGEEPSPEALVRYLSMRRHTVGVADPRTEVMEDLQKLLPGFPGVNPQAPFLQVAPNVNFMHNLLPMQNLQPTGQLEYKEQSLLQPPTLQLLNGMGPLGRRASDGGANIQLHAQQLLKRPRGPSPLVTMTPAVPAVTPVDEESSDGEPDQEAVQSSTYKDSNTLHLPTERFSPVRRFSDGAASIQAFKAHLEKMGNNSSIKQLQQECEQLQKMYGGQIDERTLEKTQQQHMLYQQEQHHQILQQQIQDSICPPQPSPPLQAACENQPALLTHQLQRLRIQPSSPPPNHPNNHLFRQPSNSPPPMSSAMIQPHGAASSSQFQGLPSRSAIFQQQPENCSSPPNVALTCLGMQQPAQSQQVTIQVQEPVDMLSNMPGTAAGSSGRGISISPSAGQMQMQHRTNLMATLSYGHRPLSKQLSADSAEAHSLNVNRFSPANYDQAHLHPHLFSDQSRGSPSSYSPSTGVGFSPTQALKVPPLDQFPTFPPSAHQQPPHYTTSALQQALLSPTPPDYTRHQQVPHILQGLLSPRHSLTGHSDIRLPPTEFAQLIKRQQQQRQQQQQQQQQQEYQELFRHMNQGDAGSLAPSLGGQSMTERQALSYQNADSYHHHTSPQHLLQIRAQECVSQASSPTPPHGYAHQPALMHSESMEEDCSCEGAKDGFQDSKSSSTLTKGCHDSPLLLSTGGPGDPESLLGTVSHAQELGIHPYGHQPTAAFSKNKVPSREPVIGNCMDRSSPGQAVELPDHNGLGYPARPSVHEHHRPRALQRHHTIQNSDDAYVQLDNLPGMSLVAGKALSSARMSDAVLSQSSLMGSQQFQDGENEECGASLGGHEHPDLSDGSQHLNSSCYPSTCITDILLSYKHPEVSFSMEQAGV
protocolDescription: biochemical
setupConditions: ADP-Glo SIK kinase assay
pIC50: −log10 of the molar value.
measureName: pIC50

{"compound": "COc1cc(-n2cnc3cc(-c4cnn(C)c4)ccc32)cc(OC)c1C(=O)NC(C)(C)C [compound 76]", "reportedResult": "< 6.30"}
{"compound": "CCN1Cc2cc(-c3cnc4cc(-c5cnn(C)c5)ccn34)cc(NCCO)c2C1=O [compound 201]", "reportedResult": "7.00 to 8.00"}
{"compound": "COc1cc(-c2cnc3cc(-c4ccc(C(F)(F)F)nn4)ccn23)cc(OC(F)F)c1C(=O)NC1CC1 [compound 281]", "reportedResult": "8.00 to 11.00"}
{"compound": "COc1cc(-n2cnc3cc(-c4cn[nH]c4)ccc32)cc(OC(F)F)c1C(=O)NC1CC1 [compound 306]", "reportedResult": "8.00 to 11.00"}
{"compound": "COc1ccc(-c2ccn3c(-c4cc(OC)c(C(=O)NC5CC5)c(OC(F)F)c4)cnc3c2)cn1 [compound 267]", "reportedResult": "8.00 to 11.00"}
{"compound": "CCOC(=O)Cn1cc(-c2ccn3c(-c4cc(OC)c(C(=O)NCC(F)(F)F)c(OC)c4)cnc3c2)cn1 [compound 230]", "reportedResult": "8.00 to 11.00"}
{"compound": "COc1cc(-c2cnc3cc(-c4cncn4C)ccn23)cc(OC(F)F)c1C(=O)NC1CC1 [compound 274]", "reportedResult": "8.00 to 11.00"}
{"compound": "COCCOc1cc(-c2cnc3cc(-c4cnn(C)c4)ccn23)cc(OC)c1C(=O)NC1CC1 [Cpd 278]", "reportedResult": "8.00 to 11.00"}
{"compound": "COc1cc(-c2cnc3cc(-c4cccnc4C#N)ccn23)cc(OC)c1C(=O)NCC(F)(F)F [compound 268]", "reportedResult": "7.00 to 8.00"}
{"compound": "COc1cc(-c2cnc3cc(-c4cn(C)cn4)ccn23)cc(OC)c1C(=O)N[C@H](C)C(F)(F)F [compound 215]", "reportedResult": "8.00 to 11.00"}
{"compound": "COc1cc(-c2cnc3cc(-c4cnn(C)c4)ccn23)cc(OC)c1C(=O)N[C@H](C)C(F)(F)F [Cpd 174]", "reportedResult": "8.00 to 11.00"}
{"compound": "COc1cc(-c2cnc3cc(-c4ccc(N(C)C)nn4)ccn23)cc(OC(F)F)c1C(=O)NC1CC1 [compound 283]", "reportedResult": "8.00 to 11.00"}
{"compound": "CCOC(=O)COc1cn2c(-c3cc(OC)c(C(=O)NC4CC4)c(OC(F)F)c3)cnc2cc1-c1cnn(C)c1 [Cpd 298]", "reportedResult": "8.00 to 11.00"}
{"compound": "COc1cc(-c2cnc3cc(-c4cnn(C)c4)ccn23)cc(F)c1C(=O)NC1CC1 [Cpd 276]", "reportedResult": "8.00 to 11.00"}
{"compound": "CCOC(=O)C(C)n1cc(-c2ccn3c(-c4cc(OC)c(C(=O)NCC(F)(F)F)c(OC)c4)cnc3c2)cn1 (stereo not drawn) [compound 263]", "reportedResult": "8.00 to 11.00"}

###

experimentalSystem: SIK2 (Homo sapiens, UniProt Q9H0K1)
Construct: purchased ThermoFisher Scientific PV4792
Sequence (Q9H0K1 whole entry): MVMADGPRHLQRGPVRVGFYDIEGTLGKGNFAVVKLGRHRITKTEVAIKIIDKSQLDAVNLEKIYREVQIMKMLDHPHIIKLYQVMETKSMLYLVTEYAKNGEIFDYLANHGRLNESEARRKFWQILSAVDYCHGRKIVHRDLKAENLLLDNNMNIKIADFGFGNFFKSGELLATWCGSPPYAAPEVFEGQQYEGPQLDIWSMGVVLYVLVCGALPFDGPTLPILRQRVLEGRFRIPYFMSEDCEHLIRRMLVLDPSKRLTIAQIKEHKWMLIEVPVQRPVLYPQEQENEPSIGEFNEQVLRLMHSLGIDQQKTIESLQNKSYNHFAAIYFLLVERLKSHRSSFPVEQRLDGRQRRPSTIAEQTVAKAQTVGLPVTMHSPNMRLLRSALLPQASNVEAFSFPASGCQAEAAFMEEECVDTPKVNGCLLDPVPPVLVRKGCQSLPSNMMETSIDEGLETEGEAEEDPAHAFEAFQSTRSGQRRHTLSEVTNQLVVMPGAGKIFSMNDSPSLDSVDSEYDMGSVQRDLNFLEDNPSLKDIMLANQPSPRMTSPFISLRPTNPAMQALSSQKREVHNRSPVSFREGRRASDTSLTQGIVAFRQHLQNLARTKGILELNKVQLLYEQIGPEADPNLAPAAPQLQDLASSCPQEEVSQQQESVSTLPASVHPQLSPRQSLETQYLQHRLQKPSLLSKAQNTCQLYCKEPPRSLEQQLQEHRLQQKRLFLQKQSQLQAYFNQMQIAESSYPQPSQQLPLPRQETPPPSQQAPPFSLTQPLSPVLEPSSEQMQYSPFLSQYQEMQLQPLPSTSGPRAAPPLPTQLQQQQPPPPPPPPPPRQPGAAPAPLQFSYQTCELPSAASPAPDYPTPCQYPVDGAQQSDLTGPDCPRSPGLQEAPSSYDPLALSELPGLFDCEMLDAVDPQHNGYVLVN
protocolDescription: biochemical
setupConditions: ADP-Glo SIK kinase assay

{"chemicalStructure": "COc1cc(-c2cnc3cc(-c4cnn(C)c4)ccn23)cc(OC)c1C(=O)NCC(F)(F)F", "IC50": "0.01 to 10 nM"}
{"chemicalStructure": "COc1cc(-c2cnc3cc(-c4ccc(C#N)nn4)ccn23)cc(OC(F)F)c1C(=O)NC1CC1", "IC50": "0.01 to 10 nM"}
{"chemicalStructure": "COc1cc(-n2cnc3cc(-c4cnn(C)c4)ccc32)cc(OC)c1C(=O)N1CC(C#N)C1", "IC50": "0.01 to 10 nM"}
{"chemicalStructure": "COc1cc(-c2cnc3cc(-c4cccnc4C#N)ccn23)cc(OC)c1C(=O)NCC(F)(F)F", "IC50": "100 to 500 nM"}
